# Lookup of reported abundance fitness keyed by entry
B1: Intersectin-1, residues 909 to 971; numbered along this chain, Q15811 (parent)
chain: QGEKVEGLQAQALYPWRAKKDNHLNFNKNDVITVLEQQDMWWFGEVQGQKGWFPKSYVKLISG

Variants of: B1
Assay: abundance fitness (aPCA) (normalised: wild type 0, dead -1); higher = more abundant; growth selection in yeast, the domain comes from the species named
Settings: Homo sapiens
Answer with the value's number alone.

[
  {
    "variant-key": "W41L",
    "abundance fitness": -0.252
  }
]

Looking up K19Y , I see its abundance fitness listed as -0.078

Looking up E45S , I see its abundance fitness listed as -0.039

Looking up G2A , I see its abundance fitness listed as -0.028
